Tested on: Botrytis cinerea (B05.10)
protocol_description: Resazurin antifungal assay of 180 alpha-factor peptide variants towards Botrytis (Example 2)
Format: cell-based
measurement_context: % inhibition of fungal growth, Botrytis conidia, peptide 100 μM, resazurin
Peptide text beside a SMILES is read from it.
property_name: Inhibition at 100 μM (%)
Hi! Could you send only the number? It should be in %, unit omitted.

Query block: Any idea what its Inhibition at 100 μM is? The molecule is CSCC[C@H](NC(=O)[C@@H]1CCCN1C(=O)[C@H](CCC(N)=O)NC(=O)CNC(=O)[C@@H]1CCCN1C(=O)[C@H](Cc1ccccc1)NC(=O)[C@H](CC(C)C)NC(=O)[C@H](CCCCN)NC(=O)[C@H](CC(C)C)NC(=O)[C@H](Cc1c[nH]c2ccccc12)NC(=O)[C@H](Cc1c[nH]cn1)NC(=O)[C@@H](N)CCCCN)C(=O)N[C@@H](Cc1ccc(O)cc1)C(=O)O [compound 61] (H-KHWLKLFPGQPMY-OH; N-terminus and C-terminus assumed)
Result block: 100

Shifting focus to the molecule that follows.
Query block: Any idea what its Inhibition at 100 μM is? The molecule is CSCC[C@H](NC(=O)[C@@H]1CCCN1C(=O)[C@H](C)NC(=O)CNC(=O)[C@@H]1CCCN1C(=O)[C@H](CCCNC(=N)N)NC(=O)[C@H](Cc1ccccc1)NC(=O)[C@H](CCC(N)=O)NC(=O)[C@@H](NC(=O)[C@H](Cc1c[nH]c2ccccc12)NC(=O)[C@H](Cc1c[nH]cn1)NC(=O)[C@@H](N)Cc1c[nH]c2ccccc12)C(C)C)C(=O)N[C@@H](Cc1ccc(O)cc1)C(=O)O [compound 97] (H-WHWVQFRPGAPMY-OH; N-terminus and C-terminus assumed)
Result block: 100

====

The entries below are paired with their reported Inhibition at 100 μM.
Tested on: Botrytis cinerea (B05.10)
protocol_description: Resazurin antifungal assay of 180 alpha-factor peptide variants towards Botrytis (Example 2)
Type: cell-based
measurement_context: % inhibition of fungal growth, Botrytis conidia, peptide 100 μM, resazurin
Peptide text beside a SMILES is read from it.

Query block: Record lookup: for Botrytis cinerea (B05.10), what Inhibition at 100 μM belongs to CSCC[C@H](NC(=O)[C@@H]1CCCN1C(=O)[C@H](CCC(=O)O)NC(=O)CNC(=O)[C@@H]1CCCN1C(=O)[C@H](CCCCN)NC(=O)[C@H](Cc1ccccc1)NC(=O)[C@H](CCC(N)=O)NC(=O)[C@H](CC(C)C)NC(=O)[C@@H](NC(=O)[C@H](Cc1c[nH]cn1)NC(=O)[C@@H](N)CCCCN)C(C)C)C(=O)N[C@@H](Cc1ccc(O)cc1)C(=O)O [compound 38] (H-KHVLQFKPGEPMY-OH; N-terminus and C-terminus assumed) ?
Result block: <90%

Shifting focus to the compound that follows.
Query block: Record lookup: for Botrytis cinerea (B05.10), what Inhibition at 100 μM belongs to CC[C@H](C)[C@H](NC(=O)[C@H](CCC(N)=O)NC(=O)[C@H](CC(C)C)NC(=O)[C@H](Cc1c[nH]c2ccccc12)NC(=O)[C@H](CCCNC(=N)N)NC(=O)[C@@H](N)CCCCN)C(=O)N[C@@H](CCCNC(=N)N)C(=O)N1CCC[C@H]1C(=O)NCC(=O)N[C@@H](CCC(=O)O)C(=O)N1CCC[C@H]1C(=O)N[C@@H](CCSC)C(=O)N[C@@H](Cc1ccc(O)cc1)C(=O)O [compound 109] (H-KRWLQIRPGEPMY-OH; N-terminus and C-terminus assumed) ?
Result block: 98.64%
